System: HIV-1 strain 92-HT599
measurementNotes: Anti HIV-1 p24 assay, strain 92-HT599 in MT2 cells
Assay type: cell-based
conditionNotes: Human immunodeficiency virus 1; MT2 cells infected with HIV-1 92-HT599, p24, 96 hours
quantityName: IC50 (nM)

[[record]]
compound = "C=C(C)[C@@H]1CC[C@]2(C(=O)N[C@@H]3CC[C@H](CN4CCCC(C)C4)C3)CC[C@]3(C)[C@H](CC[C@@H]4[C@@]5(C)CC[C@H](OC(=O)CC(C)(C)C(=O)O)C(C)(C)[C@@H]5CC[C@]43C)[C@@H]12 (stereo partly shown)"
valuereported = 1

[[record]]
compound = "C=C(C)[C@@H]1CC[C@]2(C(=O)NC3CCC(CN4CCCCC4)C3)CC[C@]3(C)[C@H](CC[C@@H]4[C@@]5(C)CC[C@H](OC(=O)CCC(=O)O)C(C)(C)[C@@H]5CC[C@]43C)[C@@H]12 (stereo partly shown)"
valuereported = 0.1

[[record]]
compound = "C=C(C)[C@@H]1CC[C@]2(C(=O)N[C@H]3C[C@@H](C(=O)N4CCOCC4)C3(C)C)CC[C@]3(C)[C@H](CC[C@@H]4[C@@]5(C)CC[C@H](OC(=O)[C@@H]6C[C@H](C(=O)O)C6(C)C)C(C)(C)[C@@H]5CC[C@]43C)[C@@H]12"
valuereported = 7

[[record]]
compound = "C=C(C)[C@@H]1CC[C@]2(C(=O)N[C@@H]3C[C@H](C(=O)N4CCCCC4)C3(C)C)CC[C@]3(C)[C@H](CC[C@@H]4[C@@]5(C)CC[C@H](OC(=O)[C@@H]6C[C@H](C(=O)O)C6(C)C)C(C)(C)[C@@H]5CC[C@]43C)[C@@H]12"
valuereported = 6


----------
measurementNotes: in vitro
Assay type: cell-based
conditionNotes: human, CC50
quantityName: CC50 (µM)

[[record]]
givensmiles = "C=C(C)[C@@H]1CC[C@]2(C(=O)N[C@@H]3C[C@H](C(=O)N4CCCC4)C3(C)C)CC[C@]3(C)[C@H](CC[C@@H]4[C@@]5(C)CC[C@H](OC(=O)CC(C)(C)C(=O)O)C(C)(C)[C@@H]5CC[C@]43C)[C@@H]12"
endpointunit = "µM"
limitoperator = "="
valuereported = 20

[[record]]
givensmiles = "C=C(C)[C@@H]1CC[C@]2(C(=O)N3CCC(CC)(C(=O)OCC)CC3)CC[C@]3(C)[C@H](CC[C@@H]4[C@@]5(C)CC[C@H](OC(=O)CC(C)(C)C(=O)O)C(C)(C)[C@@H]5CC[C@]43C)[C@@H]12"
endpointunit = "µM"
limitoperator = "="
valuereported = 7.76

[[record]]
givensmiles = "C=C(C)[C@@H]1CC[C@]2(C(=O)N[C@@H]3C=C[C@H](CN4CCOCC4)C3)CC[C@]3(C)[C@H](CC[C@@H]4[C@@]5(C)CC[C@H](OC(=O)CC(C)(C)C(=O)O)C(C)(C)[C@@H]5CC[C@]43C)[C@@H]12"
endpointunit = "µM"
limitoperator = ">"
valuereported = 20

[[record]]
givensmiles = "C=C(C)[C@@H]1CC[C@]2(C(=O)O)CC[C@]3(C)[C@H](CC[C@@H]4[C@@]5(C)CC[C@H](OC(=O)[C@@H]6C[C@H](C(=O)O)C6(C)C)C(C)(C)[C@@H]5CC[C@]43C)[C@@H]12"
endpointunit = "µM"
limitoperator = "="
valuereported = 20

